Below: a set of entries, each annotated with reported melting point.

Would you please look over these solved cases?
1) CCCCCc1c(C(C)C)nc(C(C)C)c(CN(C)C)c1-c1ccc(F)cc1    69 to 71 °C
2) C=CCC(C(=O)OC)C1(C)CCCc2c1[nH]c1ccccc21 (stereo unspecified)    115 to 116 °C
3) CC(=O)NOC(=O)Cc1cnc2ccccc2c1O    224 to 225 °C
4) [O-][N+]1=C(c2ccco2)c2cc(Cl)ccc2N(CCCl)C(CCl)C1 (stereo unspecified)    158 to 159 °C
5) Cc1oc(-c2ccccc2)nc1CCOS(C)(=O)=O    88.2 to 89 °C

Form field: reported melting point of "O=C(CCCCCNC(=O)c1ccco1)NO" 114 to 115 °C

How about "Cc1[nH]c(=O)c(C#N)cc1-c1ccccc1OCCCC(=O)O" ? 218 to 220 °C

How about CN1N=C(Br)C2N=C(Cl)N=C(O)C21 (stereo unspecified) ? 260 to 262 °C

How about CC(=O)NC1CCc2c(C(=O)O)[nH]c(C(=O)O)c2C1 (stereo unspecified) ? 233 to 235 °C

How about "COc1cc(C(=O)NCCc2ccc(N)cc2)cc(OC)c1OC(C)=O" ? 178 to 180 °C

How about "CC(=O)NC[C@H]1CN(c2ccc(N3CCC(=O)N(C)CC3)c(F)c2)C(=O)O1" ? 203 to 204 °C
